Assay: Acute toxicity in po dosed Swiss mouse assessed as mortality after 7 days
Assay type: organism-based
Conditions: in vivo
experimental.endpoint: LD50 at 168 h (mg/kg)
Number in mg/kg, nothing else.

Which LD50 at 168 h reading was recorded for the compound CN(C)CCc1cc2cccc3c2n1-c1ccccc1OC3.Cl ?
195

Also CN(C)Cc1c(-c2ccccc2)n2c3c(cccc13)CCc1ccccc1-2 , if possible.
1600

Also CN(C)Cc1cn2c3c(cccc13)CCc1ccccc1-2.Cl , if possible.
170

Also CN(C)Cc1cc2cccc3c2n1-c1ccccc1CC3 , if possible.
210

Also CN(C)CCc1c(-c2ccccc2)c2cccc3c2n1-c1ccccc1CC3 , if possible.
1900

Also CNCCc1cc2cccc3c2n1-c1ccccc1CC3.Cl , if possible.
410

Also CNCCc1c(C)c2cccc3c2n1-c1ccccc1CC3.Cl , if possible.
390

Also Cc1c(CCN(C)C)n2c3c(cccc13)CCc1ccccc1-2 , if possible.
195

Also Cc1c(CCN(C)C)n2c3c(cccc13)COc1ccccc1-2.Cl , if possible.
310

Also Cc1c(CN(C)C)c2cccc3c2n1-c1ccccc1CC3 , if possible.
450

Also CN(C)CCc1cc2cccc3c2n1-c1ccccc1CC3 , if possible.
420

Also Cl.c1ccc(CN(CCc2cc3cccc4c3n2-c2ccccc2CC4)Cc2ccccc2)cc1 , if possible.
1400

---

I'd be grateful if you could share measured MED50 for these entries.
System: Mus musculus
Experiment: Antidepressant activity in po dosed Swiss mouse assessed as reversal of reserpine-induced hypothermia measured over 5 hrs
Type: functional
Number in mg/kg, nothing else.

Which MED50 reading was recorded for the compound CNCCc1cc2cccc3c2n1-c1ccccc1CC3.Cl ?
2.5

Also CN(C)CCCN1c2ccccc2CCc2ccccc21 [IMIPRAMINE] , if possible.
2.5

Also CN(C)CCc1cc2cccc3c2n1-c1ccccc1OC3.Cl , if possible.
50

Also CN(C)CCc1cc2cccc3c2n1-c1ccccc1CC3 , if possible.
5

---

System: Mus musculus
Assay: Antidepressant activity in po dosed Swiss mouse assessed as reversal of reserpine-induced hypothermia measured over 5 hrs
Format: functional
experimental.endpoint: MED50

Item: CN(C)CCc1c(-c2ccccc2)c2cccc3c2n1-c1ccccc1CC3 Test system: Mus musculus Read-out: MED50 Value: ?
>50 mg/kg

Also Cl.c1ccc(CN(CCc2cc3cccc4c3n2-c2ccccc2CC4)Cc2ccccc2)cc1 , if possible.
> 50 mg/kg

Also Cc1c(CCN(C)C)n2c3c(cccc13)CCc1ccccc1-2 , if possible.
>50 mg/kg

Also CN(C)Cc1c(-c2ccccc2)n2c3c(cccc13)CCc1ccccc1-2 , if possible.
>50 mg/kg

Also CN(C)Cc1cn2c3c(cccc13)CCc1ccccc1-2.Cl , if possible.
>50 mg/kg

Also CNCCc1c(C)c2cccc3c2n1-c1ccccc1CC3.Cl , if possible.
>50 mg/kg

---

Tested on: Mus musculus
Experiment: Antidepressant activity in po dosed Swiss mouse assessed as reversal of reserpine-induced hypothermia measured over 5 hrs
Type: functional
experimental.endpoint: MED50

Which MED50 reading was recorded for the compound Cc1c(CCN(C)C)n2c3c(cccc13)COc1ccccc1-2.Cl ?
>50 mg/kg

Also Cc1c(CN(C)C)c2cccc3c2n1-c1ccccc1CC3 , if possible.
>50 mg/kg

Also CN(CCc1cc2cccc3c2n1-c1ccccc1CC3)Cc1ccccc1.Cl [AZIPRAMINE HYDROCHLORIDE] , if possible.
5 mg/kg

---

System: Ileum
Assay: Antispasmodic activity in guinea pig ileum assessed as inhibition of histamine-induced spasm
Type: functional
Settings: Cavia porcellus, read-out: ED50 (the source's name)
Lab note: compare EC50 with 0.6 µg/mL, writing label 1 if less and label 0 if equal or more.

Dear reviewer, please state whether CNCCc1c(C)c2cccc3c2n1-c1ccccc1CC3.Cl has EC50 strictly beneath 0.6 µg/mL.
label 0

Also CN(C)CCc1cc2cccc3c2n1-c1ccccc1OC3.Cl , if possible.
label 0

Also CN(C)CCCN1c2ccccc2CCc2ccccc21 , if possible.
label 1

Also Cc1c(CCN(C)C)n2c3c(cccc13)CCc1ccccc1-2 , if possible.
label 0

Also Cl.c1ccc(CN(CCc2cc3cccc4c3n2-c2ccccc2CC4)Cc2ccccc2)cc1 , if possible.
label 0

Also CN(CCc1cc2cccc3c2n1-c1ccccc1CC3)Cc1ccccc1.Cl [AZIPRAMINE HYDROCHLORIDE] , if possible.
label 0

Also CN(C)CCc1cc2cccc3c2n1-c1ccccc1CC3 , if possible.
label 1
